// values below are reported logD
# Method description: method code SF-AS, from Novello, F.; Sprague, M. (1967). Structure-activity relations among the thiazole diuretics. Ind. Chim. Belge, 32(Spec.No.), 222-225.
# Measurement parameters: pH 6.5
Reported metric: logD

> print(dat)
                                    compound  reported.metric  result.value
 1       Cc1cc2c(cc1S(N)(=O)=O)S(=O)(=O)NCN2             logD         -0.22
 2  NS(=O)(=O)c1cc2c(cc1Cl)NC(C(F)(F)F)NS2(=O)=O (stereo not drawn)             logD          0.49
 3  NS(=O)(=O)c1cc2c(cc1[N+](=O)[O-])NCNS2(=O)=O             logD           0.2
 4  NS(=O)(=O)c1cc2c(cc1Cl)NC(Cc1ccccc1)NS2(=O)=O (stereo not drawn)             logD          0.93
 5        NS(=O)(=O)c1cc2c(cc1F)N=CNS2(=O)=O             logD         -0.29
 6  CCCCCC1=NS(=O)(=O)c2cc(S(N)(=O)=O)c(Cl)cc2N1             logD          2.01
 7  CCCC1=Nc2cc(Cl)c(S(N)(=O)=O)cc2S(=O)(=O)N1             logD          1.15
 8  NS(=O)(=O)c1cc2c(cc1Cl)NC(CC1CCCC1)NS2(=O)=O (stereo not drawn)             logD          1.27
 9  CC1CCC2(CC1)Nc1cc(Cl)c(S(N)(=O)=O)cc1S(=O)(=O)N2 (stereo not drawn)             logD          0.85
10      Cc1cc2c(cc1S(N)(=O)=O)S(=O)(=O)N=CN2             logD         -0.32
11  NS(=O)(=O)c1cc2c(cc1Cl)N=C(Cc1ccccc1)NS2(=O)=O             logD          1.56
12  NS(=O)(=O)c1cc2c(cc1C(F)(F)F)N=CNS2(=O)=O             logD          0.32
13  CC1(C)Nc2cc(Cl)c(S(N)(=O)=O)cc2S(=O)(=O)N1             logD          0.15
14  NS(=O)(=O)c1cc2c(cc1Cl)NC(CCl)NS2(=O)=O (stereo not drawn)             logD          0.11
15       NS(=O)(=O)c1ccc2c(c1)S(=O)(=O)NC=N2             logD         -0.62
16  CC1Nc2cc(Cl)c(S(N)(=O)=O)cc2S(=O)(=O)N1 (stereo not drawn)             logD          0.08
17        NS(=O)(=O)c1ccc2c(c1)S(=O)(=O)NCN2             logD         -0.52
18        NS(=O)(=O)c1cc2c(cc1Br)NCNS2(=O)=O             logD          0.08
19  CC1=Nc2cc(Cl)c(S(N)(=O)=O)cc2S(=O)(=O)N1             logD          0.03
20  NS(=O)(=O)c1ccc2c(c1)S(=O)(=O)NC(CC1CCCC1)N2 (stereo not drawn)             logD          1.24
21  NS(=O)(=O)c1cc2c(cc1Cl)NC(C(Cl)(Cl)Cl)NS2(=O)=O (stereo not drawn)             logD          0.82
22  NS(=O)(=O)c1cc2c(cc1Cl)NC1(CCCCC1)NS2(=O)=O             logD             1
23       NS(=O)(=O)c1cc2c(cc1Br)N=CNS2(=O)=O             logD             0
